Src3D (Homo sapiens (Human), UniProt P12931) data, read-out pIC50
Sequence (P12931 whole entry, looked up, change not shown): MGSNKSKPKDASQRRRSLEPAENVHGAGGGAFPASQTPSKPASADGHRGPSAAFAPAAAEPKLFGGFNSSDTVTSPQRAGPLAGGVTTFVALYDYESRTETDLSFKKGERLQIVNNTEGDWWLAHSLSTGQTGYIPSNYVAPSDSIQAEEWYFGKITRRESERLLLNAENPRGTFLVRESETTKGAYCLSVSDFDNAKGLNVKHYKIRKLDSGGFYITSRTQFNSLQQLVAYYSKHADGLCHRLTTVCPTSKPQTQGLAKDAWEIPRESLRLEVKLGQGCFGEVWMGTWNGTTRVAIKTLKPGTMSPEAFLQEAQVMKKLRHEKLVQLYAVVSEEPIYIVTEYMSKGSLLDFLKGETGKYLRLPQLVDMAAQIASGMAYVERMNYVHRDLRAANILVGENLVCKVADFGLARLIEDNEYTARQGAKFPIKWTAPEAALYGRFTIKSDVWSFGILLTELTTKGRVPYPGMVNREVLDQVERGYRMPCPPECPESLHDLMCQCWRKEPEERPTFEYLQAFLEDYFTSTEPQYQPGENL
Remember the convention: pIC50 equals -log10 of concentration in molar.

Query :: Need pIC50 of CC(C)n1nc(-c2cc3ccccc3[nH]2)c2c(N)ncnc21 , thanks.
Result :: 5.84

Query :: // repeat for CC(C)n1nc(-c2cc3c(Cl)cccc3[nH]2)c2c(N)ncnc21 and report
Result :: 5.91

Query :: Next compound: COc1ccc2cc(-c3nn(C(C)C)c4ncnc(N)c34)ccc2c1
Result :: 6.24

* * *

I'd appreciate it if you could supply log10(EC50) values for the items below.
- TARGET_UNDER_TEST: PfCDPK4 (Plasmodium falciparum (isolate 3D7), UniProt Q8IBS5)
- PROCEDURE_TEXT: biochemical
A difference of one corresponds to tenfold EC50; all values are log10 with EC50 in µM.

Query :: Request the reported log10(EC50) associated with Cc1cc(-c2nn(CC3CCNCC3)c3ncnc(N)c23)ccc1-c1ccccc1 [Compound 118]
Result :: -0.29

Query :: Let us now turn to Nc1ncnc2c1c(-c1ccc3ccccc3c1)nn2CC1CCNCC1 [Compound 147]
Result :: -1.76

Query :: How about CC(C)(C)c1nc(-c2ccc3ccccc3c2)c2c(N)nccn12 [Compound 84] ?
Result :: -1.26

Query :: Try the compound N#Cc1cccc(-c2ccc(-c3nn(CC4CCNCC4)c4ncnc(N)c34)cc2)c1 [Compound 74]
Result :: 0.00

Query :: And for COc1ccc2cc(-c3nn(C(C)(C)C)c4ncnc(N)c34)ccc2c1 [Compound 135] ?
Result :: -0.86

Query :: Follow-up entry: Nc1ncnc2c1c(-c1ccc3cc(O)ccc3c1)nn2CC1CCNCC1 [Compound 119]
Result :: -2.14

Query :: Try the compound CC(C)c1nc(-c2ccc3ccccc3c2)c2c(N)nccn12 [Compound 8]
Result :: -1.04

* * *

- PROCEDURE_TEXT: in vivo
- EXPERIMENTAL_CONTEXT: mouse, ip, 50 mg/kg
REPORTED_ENDPOINT: concentration at 20 h (nM)
Report as a plain number; the unit nM is understood.

Query :: Please look up its concentration at 20 h: CCOc1ccc2cc(-c3nn(CC4CCNCC4)c4ncnc(N)c34)ccc2c1
Result :: 410

* * *

- Tested on: human promyelocytic leukemia (HL-60)
- PROCEDURE_TEXT: Growth inhibition of human cell line HL-60
- EXPERIMENTAL_CONTEXT: 25 μM
REPORTED_ENDPOINT: Cell Toxicity HL60, % at 25 μM

Query :: For the compound shown here, CC(C)n1nc(-c2ccc3ccccc3c2)c2c(N)ncnc21 , give the reported Cell Toxicity HL60, % at 25 μM.
Result :: 50% at 25 μM;

Query :: Lookup CC(C)n1nc(-c2ccc(Cl)c(Cl)c2)c2c(N)ncnc21
Result :: 51% at 25 μM

Query :: Would you kindly repeat that for CC(C)(C)n1nc(-c2ccc3ccccc3c2)c2c(N)ncnc21 ?
Result :: <30% at 25 μM;

Query :: Moving on to CS(=O)(=O)N1CCC(n2nc(Cc3cccc4ccccc34)c3c(N)ncnc32)CC1
Result :: <30% at 25 μM

* * *

- PROCEDURE_TEXT: in vivo
- EXPERIMENTAL_CONTEXT: mouse, ip, 50 mg/kg
REPORTED_ENDPOINT: Cmax

Query :: Report Cmax for CCOc1ccc2cc(-c3nn(CC4CCNCC4)c4ncnc(N)c34)ccc2c1 please.
Result :: 8.2 µM

* * *

- Test system: human promyelocytic leukemia (HL-60)
- PROCEDURE_TEXT: Growth inhibition of human cell line HL-60
- EXPERIMENTAL_CONTEXT: 10 μM
REPORTED_ENDPOINT: Cell Toxicity HL60, % at 10 μM

Query :: Could you share which Cell Toxicity HL60, % at 10 μM value was measured for CCCCOc1ccc2cc(-c3nn(CC4CCNCC4)c4ncnc(N)c34)ccc2c1 ?
Result :: <30% at 10 μM

Query :: Can you handle COc1ccc2cc(-c3nc(C(C)(C)C)n4ccnc(N)c34)ccc2c1 next?
Result :: <30% at 10 μM

Query :: Cool, now Cn1ncc2cc(-c3nn(CC4CCNCC4)c4ncnc(N)c34)ccc21
Result :: <30% at 10 μM

Query :: Then CCCOc1ccc2cc(-c3nn(C(C)C)c4ncnc(N)c34)ccc2c1 ?
Result :: <30% at 10 μM

Query :: Item: COc1ccc2cc(-c3nn(CC4CCNCC4)c4ncnc(N)c34)ccc2c1
Result :: <30% at 10 μM

Query :: What about this molecule? CC(C)n1nc(Cc2cccc3ccccc23)c2c(N)ncnc21
Result :: <30% at 10 μM

Query :: Thanks! And Nc1ncnc2c1c(Cc1cccc3ccccc13)nn2CCC1CCNCC1 ?
Result :: <30% at 10 μM;

Query :: Repeat for the following molecule: NCCCCCC(=O)Nc1nc2ccc(C(=O)c3ccccc3)cc2[nH]1
Result :: <30% at 10 μM

Query :: Thanks! And CC(C)n1nc(-c2cc3c(Cl)cccc3[nH]2)c2c(N)ncnc21 ?
Result :: 45% toxicity at

* * *

- TARGET_UNDER_TEST: SrcKD (Homo sapiens (Human))
- Sequence (P12931 270-523): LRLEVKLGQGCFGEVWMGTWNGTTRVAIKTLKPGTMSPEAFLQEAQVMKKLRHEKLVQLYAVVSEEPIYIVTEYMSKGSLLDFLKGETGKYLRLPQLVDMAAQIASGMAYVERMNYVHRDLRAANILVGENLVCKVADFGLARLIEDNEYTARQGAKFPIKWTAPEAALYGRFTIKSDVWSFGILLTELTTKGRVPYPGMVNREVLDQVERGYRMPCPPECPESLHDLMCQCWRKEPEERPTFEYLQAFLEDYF
- PROCEDURE_TEXT: Tyrosine kinase IC50, SrcKD
- Format: biochemical
REPORTED_ENDPOINT: IC50 (µM)
State just the number; it will be interpreted in µM.

Query :: Find the measured IC50: item COc1ccc2cc(-c3nn(C(C)C)c4ncnc(N)c34)ccc2c1 , target or system SrcKD (Homo sapiens (Human)).
Result :: 0.77

Query :: Repeat for the following compound: CC(C)(C)n1nc(-c2cccc3ccccc23)c2c(N)ncnc21
Result :: 1.3

* * *

- TARGET_UNDER_TEST: PfCDPK1 (Plasmodium falciparum (isolate 3D7), UniProt P62344)
- PROCEDURE_TEXT: biochemical
REPORTED_ENDPOINT: pEC50
Please express pEC50 as -log10 of the molar concentration.

Query :: Could you share what pEC50 was measured for Cc1ccccc1COc1ccc2cc(-c3nn(C(C)C)c4ncnc(N)c34)ccc2c1 [Compound 49] , tested on PfCDPK1 (Plasmodium falciparum (isolate 3D7), UniProt P62344)?
Result :: 6.16

Query :: Next compound up: CC(Oc1ccc2cc(-c3nn(C(C)C)c4ncnc(N)c34)ccc2c1)c1ccccc1 (stereo not drawn) [Compound 53]
Result :: 6.27

Query :: Note, next up: CC(C)Oc1ccc2cc(-c3nn(CC4CCNCC4)c4ncnc(N)c34)ccc2c1 [Compound 32]
Result :: 6.44

Query :: And the next one, CCCOc1ccc2cc(-c3nn(C(C)C)c4ncnc(N)c34)ccc2c1 [Compound 12] ?
Result :: 6.18

Query :: Next compound up: CC(C)(C)n1nc(-c2ccc3oc(-c4ccccc4)nc3c2)c2c(N)ncnc21 [Compound 131]
Result :: 6.58

Query :: Next: COc1ccc2cc(-c3nn(CC4CCNCC4)c4ncnc(N)c34)ccc2c1 [Compound 28]
Result :: 6.13

Query :: One more compound: CC(C)COc1ccc2cc(-c3nn(CC4CCN(C)CC4)c4ncnc(N)c34)ccc2c1 [Compound 124]
Result :: 6.92

Query :: Ok, now Nc1ncnc2c1c(-c1ccc3cc(OCc4ccccc4)ccc3c1)nn2CC1CCNCC1 [Compound 34]
Result :: 7.57

Query :: Also, CC(C)n1nc(-c2ccc3c(ccn3C)c2)c2c(N)ncnc21 [Compound 20] please.
Result :: 6.51

Query :: Now give it for CC(C)(C)n1nc(-c2ccc(NC(=O)Cc3ccccc3)cc2)c2c(N)ncnc21 [Compound 66] too.
Result :: 6.54

Query :: Can you handle CC(C)n1nc(-c2ccc3cc(OCc4ccc(CC(F)(F)F)c(Cl)c4)ccc3c2)c2c(N)ncnc21 [Compound 51] next?
Result :: 5.80

Query :: Further, for COc1ccc2cc(-c3nn(C(C)(C)C)c4ncnc(N)c34)ccc2c1 [Compound 135] ?
Result :: 6.18

Query :: Entry CCCCOc1ccc2cc(-c3nn(C(C)C)c4ncnc(N)c34)ccc2c1 [Compound 42] please
Result :: 6.81

Query :: Next up: Nc1ncnc2c1c(-c1ccc(Cl)cc1)nn2CC1CCNCC1 [Compound 45]
Result :: 7.25

Query :: Please answer likewise for CCCC(=O)Nc1ccc(-c2nn(C(C)(C)C)c3ncnc(N)c23)cc1 [Compound 61]
Result :: 7.15

Query :: Now the compound CC(C)n1nc(-c2ccc3cc(OCc4cc(F)cc(Cl)c4)ccc3c2)c2c(N)ncnc21 [Compound 52]
Result :: 5.97

Query :: Then COc1ccc(-c2nn(C(C)C)c3ncnc(N)c23)cc1OC [Compound 7k] ?
Result :: 5.87

* * *

- System: human lymphocyte (CRL8155)
- PROCEDURE_TEXT: Growth inhibition of human cell line CRL8155
- EXPERIMENTAL_CONTEXT: 30 μM
REPORTED_ENDPOINT: Cell Toxicity CRL8155, % at 30 μM

Query :: Request: Cell Toxicity CRL8155, % at 30 μM, test system human lymphocyte (CRL8155), entry Nc1ncnc2c1c(Cc1cccc3ccccc13)nn2CCC1CCNCC1 [Compound 5i]
Result :: <30% at 30 μM

Query :: Then this molecule: Cc1cccc2[nH]c(-c3nc(C(C)(C)C)n4ccnc(N)c34)cc12 [Compound 83]
Result :: 46% at 30 μM

Query :: Same again, this time with Nc1ncnc2c1c(-c1cnc3ccccc3c1)nn2CC1CCNCC1 [Compound 30]
Result :: <30% at 30 μM

Query :: Try this molecule next: COc1ccc2cc(-c3nn(CC4CCNCC4)c4ncnc(N)c34)ccc2c1 [Compound 28]
Result :: <30% at 30 μM

Query :: Try CCOc1ccc2cc(-c3nn(C4CCN(CC)CC4)c4ncnc(N)c34)ccc2c1 [Compound 149] next.
Result :: <30% at 30 μM

Query :: Likewise for CCOc1ccc2cc(-c3nn(CC4CCN(C)CC4)c4ncnc(N)c34)ccc2c1 [Compound 150] ?
Result :: <30% at 30 μM

Query :: Another: Nc1ncnc2c1c(-c1ccc3nccnc3c1)nn2CC1CCNCC1 [Compound 122]
Result :: <30% at 30 μM

Query :: What about this molecule? Nc1ncnc2c1c(-c1ccc3cc(OCc4cccc(Cl)c4)ccc3c1)nn2CC1CCNCC1 [Compound 38]
Result :: 98% at 30 μM

Recorded values, source patent US9765037B2.
